biological target: human MCH1 receptor (Homo sapiens); assay: MCHR1 antagonism functional assay, measuring cytoplasmic calcium concentration ([Ca2+]i)
Where a name gives a salt, the structure may show the parent alone.
attribute_measured: IC50 (nM)

compound	attribute_measured	units_text	observed_result
O=c1cc(OCc2ccc(Cl)cn2)ccn1-c1ccc2c(c1)cc1n2CCN(CCF)CC1	IC50	nM	10
O=c1cc(OCc2ccc(Cl)cn2)ccn1-c1ccc2c(c1)c(Cl)c1n2CCN(CCF)CC1	IC50	nM	15.5
CC(C)N1CCc2cc3cc(-n4ccc(OCc5ccc(Cl)cn5)cc4=O)ccc3n2CC1	IC50	nM	6.2
CC(C)N1CCc2cc3cc(-n4ccc(OCc5ccccc5F)cc4=O)ccc3n2CC1 [Example 23, hydrochloride salt]	IC50	nM	15.7
CN1CCc2cc3cc(-n4ccc(OCc5ccc(Cl)cn5)cc4=O)ccc3n2CC1	IC50	nM	9.6
CC(C)N1CCc2c(Cl)c3cc(-n4ccc(OCc5ccc(Cl)cn5)cc4=O)ccc3n2CC1	IC50	nM	18.5
CCN1CCc2cc3cc(-n4ccc(OCc5ccc(Cl)cn5)cc4=O)ccc3n2CC1	IC50	nM	6.5
CN1CCc2cc3cc(-n4ccc(OCc5ccc(F)cn5)cc4=O)ccc3n2CC1	IC50	nM	14.9

----------
biological target: human MCH1 receptor (Homo sapiens); assay: MCHR1 antagonism functional assay, measuring cytoplasmic calcium concentration ([Ca2+]i);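 also: human MCH1 AequoScreen cells loaded with calcium-sensitive fluorescent dye, compounds preincubated one hour, then MCH given at its EC80, inhibition of ΔF/F rise relative to DMSO vehicle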
pIC50: −log10 of the molar value. Counter-ions that a name gives are not always drawn.
attribute_measured: pIC50

compound	assay_target	attribute_measured	observed_result
CCN1CCc2cc3cc(-n4ccc(OCc5ccc(OC)cc5)cc4=O)ccc3n2CC1	human MCH1 receptor (Homo sapiens)	pIC50	8.10
O=c1cc(OCc2ccc(Cl)cn2)ccn1-c1ccc2c(c1)cc1n2CCN(C2CCC2)CC1	human MCH1 receptor (Homo sapiens)	pIC50	7.91
Cc1c2n(c3ccc(-n4ccc(OCc5ccc(Cl)cn5)cc4=O)cc13)CCN(C(C)C)CC2	human MCH1 receptor (Homo sapiens)	pIC50	7.84
O=c1cc(OCc2ccc(F)cn2)ccn1-c1ccc2c(c1)cc1n2CCNCC1 [Example 1, hydrochloride salt]	human MCH1 receptor (Homo sapiens)	pIC50	7.75
CC(=O)N1CCc2cc3cc(-n4ccc(OCc5ccc(Cl)cn5)cc4=O)ccc3n2CC1	human MCH1 receptor (Homo sapiens)	pIC50	7.72
CN1CCc2cc3cc(-n4ccc(OCc5ccc(Cl)cc5)cc4=O)ccc3n2CC1	human MCH1 receptor (Homo sapiens)	pIC50	8.05
O=c1cc(OCc2ccccc2)ccn1-c1ccc2c(c1)cc1n2CCN(C2CC2)CC1	human MCH1 receptor (Homo sapiens)	pIC50	7.89
O=c1cc(OCc2ccc(Cl)cn2)ccn1-c1ccc2c(c1)cc1n2CCNCC1 [Example 4, dihydrochloride salt]	human MCH1 receptor (Homo sapiens)	pIC50	8.01
O=c1cc(OCc2ccc(Cl)cn2)ccn1-c1ccc2c(c1)cc1n2CCN(CC2CC2)CC1	human MCH1 receptor (Homo sapiens)	pIC50	8.21
CC(C)N1CCc2c(Cl)c3cc(-n4ccc(OCc5ccccc5)cc4=O)ccc3n2CC1 [Example 27, hydrochloride salt]	human MCH1 receptor (Homo sapiens)	pIC50	7.52
CC(C)N1CCc2cc3cc(-n4ccc(OCc5ccc(F)cn5)cc4=O)ccc3n2CC1	human MCH1 receptor (Homo sapiens)	pIC50	7.82
O=c1cc(OCc2ccccc2F)ccn1-c1ccc2c(c1)cc1n2CCNCC1 [Example 7, hydrochloride salt]	human MCH1 receptor (Homo sapiens)	pIC50	7.56
O=c1cc(OCc2ccc(C(F)(F)F)cc2)ccn1-c1ccc2c(c1)cc1n2CCNCC1 [Example 8, hydrochloride salt]	human MCH1 receptor (Homo sapiens)	pIC50	6.91
O=c1cc(OCc2ccc(Cl)cn2)ccn1-c1ccc2c(c1)cc1n2CCN(C2CC2)CC1	human MCH1 receptor (Homo sapiens)	pIC50	7.76
CC(C)N1CCc2cc3cc(-n4ccc(OCc5ccc(Cl)cc5)cc4=O)ccc3n2CC1	human MCH1 receptor (Homo sapiens)	pIC50	8.14
CC(C)N1CCc2cc3cc(-n4ccc(OCc5ccc(F)cc5)cc4=O)ccc3n2CC1	human MCH1 receptor (Homo sapiens)	pIC50	8.10
O=c1cc(OCc2ccc(Cl)cc2)ccn1-c1ccc2c(c1)cc1n2CCNCC1 [Example 6, hydrochloride salt]	human MCH1 receptor (Homo sapiens)	pIC50	7.92
CN1CCc2cc3cc(-n4ccc(OCc5ccccc5)cc4=O)ccc3n2CC1 [Example 10, hydrochloride salt]	human MCH1 receptor (Homo sapiens)	pIC50	8.04
COc1ccc(COc2ccn(-c3ccc4c(c3)cc3n4CCNCC3)c(=O)c2)cc1 [Example 2, hydrochloride salt]	human MCH1 receptor (Homo sapiens)	pIC50	7.48
CCN1CCc2cc3cc(-n4ccc(OCc5ccc(F)cc5)cc4=O)ccc3n2CC1	human MCH1 receptor (Homo sapiens)	pIC50	8.14
CC(C)N1CCc2c(Br)c3cc(-n4ccc(OCc5ccc(Cl)cn5)cc4=O)ccc3n2CC1	human MCH1 receptor (Homo sapiens)	pIC50	7.51
O=c1cc(OCc2ccccc2)ccn1-c1ccc2c(c1)cc1n2CCNCC1	human MCH1 receptor (Homo sapiens)	pIC50	7.75
O=c1cc(OCc2ccc(F)cc2)ccn1-c1ccc2c(c1)cc1n2CCNCC1 [Example 5, hydrochloride salt]	human MCH1 receptor (Homo sapiens)	pIC50	7.92
CC(C)N1CCc2cc3cc(-n4ccc(OCc5ccccc5)cc4=O)ccc3n2CC1 [Example 19, hydrochloride salt]	human MCH1 receptor (Homo sapiens)	pIC50	8.09
CC(C)N1CCc2c(I)c3cc(-n4ccc(OCc5ccc(Cl)cn5)cc4=O)ccc3n2CC1	human MCH1 receptor (Homo sapiens)	pIC50	7.41
